# Test system: A204
# ASSAY_DETAILS: OncoPanel cytotoxicity assay
# Format: cell-based
# REPORTED_CONDITIONS: Homo sapiens, 72 hour incubation
QUANTITY_KIND: IC50 (nM)
Give your result in nM as a bare value.

CC[C@@H]1CNC2(CC2)CN1C(=O)[C@@H]1C[C@@H](F)CN1C(=O)C1=C(C(C)C)N2C(=N[C@@](C)(c3ccc(Cl)nc3)[C@H]2c2ccc(Cl)c(F)c2)S1 :: 755

The record that follows has no IC50 shown yet.
For `CC1(C)CCC2(CC1)N[C@@H](C(=O)N[C@@H]1CC[C@@H](C(N)=O)OC1)[C@H](c1ccnc(Cl)c1F)[C@]21C(=O)Nc2cc(Cl)ccc21` , what is its reported IC50?
29.4

====

# Test system: CHP-212
# ASSAY_DETAILS: OncoPanel cytotoxicity assay
# Format: cell-based
# REPORTED_CONDITIONS: Homo sapiens, 72 hour incubation
# Procedure: Cells were grown in RPMI 1640, 10% FBS, 2 mM L-alanyl-L-Glutamine, 1 mM Na Pyruvate, or a special medium in a humidified atmosphere of 5% CO2 at 37° C. Cells were seeded into 384-well plates and incubated in a humidified atmosphere of 5% CO2 at 37° C. Test compounds were added 24 hours post cell seeding. At the same time, a time zero, untreated cell plate was generated as a control. […] Cell proliferation was measured by the signal intensity of the incorporated nuclear dye. […]
Consider the following molecules and their measured pIC50 readings.
Value format note: pIC50 is -log10 of concentration (mol/L); just state the number.

CC1(C)CCC2(CC1)N[C@@H](C(=O)N[C@@H]1CC[C@@H](C(N)=O)OC1)[C@H](c1ccnc(Cl)c1F)[C@]21C(=O)Nc2cc(Cl)ccc21 :: 7.53

For `CC[C@@H]1CNC2(CC2)CN1C(=O)[C@@H]1C[C@@H](F)CN1C(=O)C1=C(C(C)C)N2C(=N[C@@](C)(c3ccc(Cl)nc3)[C@H]2c2ccc(Cl)c(F)c2)S1` , what is its reported pIC50?
6.71

====

Consider the following compounds and their measured IC50 readings.
# Test system: Hs 578T
# ASSAY_DETAILS: OncoPanel cytotoxicity assay
# Assay type: cell-based
# REPORTED_CONDITIONS: Homo sapiens, 72 hour incubation

CC1(C)CCC2(CC1)N[C@@H](C(=O)N[C@@H]1CC[C@@H](C(N)=O)OC1)[C@H](c1ccnc(Cl)c1F)[C@]21C(=O)Nc2cc(Cl)ccc21 [Compound B] :: > 10 µM

The record that follows has no IC50 shown yet.
For CC[C@@H]1CNC2(CC2)CN1C(=O)[C@@H]1C[C@@H](F)CN1C(=O)C1=C(C(C)C)N2C(=N[C@@](C)(c3ccc(Cl)nc3)[C@H]2c2ccc(Cl)c(F)c2)S1 [Compound A] , what is its reported IC50?
> 40 µM

====

# Test system: HuCCT1
# ASSAY_DETAILS: OncoPanel cytotoxicity assay
# Type: cell-based
# REPORTED_CONDITIONS: Homo sapiens, HuCCT-1, 72 hour incubation
pIC50: −log10 of the molar value.
QUANTITY_KIND: pIC50

CC1(C)CCC2(CC1)N[C@@H](C(=O)N[C@@H]1CC[C@@H](C(N)=O)OC1)[C@H](c1ccnc(Cl)c1F)[C@]21C(=O)Nc2cc(Cl)ccc21 :: < 5.00

The record that follows has no pIC50 shown yet.
For `CC[C@@H]1CNC2(CC2)CN1C(=O)[C@@H]1C[C@@H](F)CN1C(=O)C1=C(C(C)C)N2C(=N[C@@](C)(c3ccc(Cl)nc3)[C@H]2c2ccc(Cl)c(F)c2)S1` , what is its reported pIC50?
< 4.40
